Molecular target: PAR2 (HT-29 cells, trypsin activation) (Homo sapiens)
Construct: host or cells: HT-29 cells
Sequence (P55085 26-397): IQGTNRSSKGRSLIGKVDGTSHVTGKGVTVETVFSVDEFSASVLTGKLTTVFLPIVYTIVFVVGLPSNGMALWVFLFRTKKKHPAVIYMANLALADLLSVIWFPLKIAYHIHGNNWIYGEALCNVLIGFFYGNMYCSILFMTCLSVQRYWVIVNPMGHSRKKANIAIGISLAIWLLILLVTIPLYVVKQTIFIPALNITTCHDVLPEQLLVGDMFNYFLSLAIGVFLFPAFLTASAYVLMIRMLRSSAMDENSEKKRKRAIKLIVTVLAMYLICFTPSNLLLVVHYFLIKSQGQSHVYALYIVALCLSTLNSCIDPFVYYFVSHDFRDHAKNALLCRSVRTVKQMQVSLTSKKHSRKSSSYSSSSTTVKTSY
Assay: Ca FLIPR TETRA assay, ANTAGONIST mode, stimulation with 3.1 U/mL trypsin
Assay type: cell-based
Settings: HT-29 cells, antagonist mode, stimulation with 3.1 U/mL trypsin
// values below are reported IC50

Previously resolved entries follow.
compound	measurement-target	quantity	observed-result
CC(C)(C)c1cc(-c2ccc(F)cc2)nn2cc(C(=O)N3CCN(c4cc[nH]n4)C(=O)C3(C)C)nc12 [Compound I-471]	PAR2 (HT-29 cells, trypsin activation) (Homo sapiens)	IC50	1.6 nM
CC(C)(C)c1cc(-c2ccc(C(F)(F)F)cc2)nn2cc(C(=O)N3CCN(C(=O)[C@H]4C[C@@](C)(O)C4)CC3(C)C)nc12 [Compound I-463]	PAR2 (HT-29 cells, trypsin activation) (Homo sapiens)	IC50	2.7 nM
CC(C)(C)c1cc(-c2ccc(Cl)c(F)c2)nn2cc(C(=O)N3CCN(C(=O)[C@H]4C[C@@](C)(O)C4)CC3(C)C)nc12 [Compound I-469]	PAR2 (HT-29 cells, trypsin activation) (Homo sapiens)	IC50	0.2 nM
Cc1nc(C(=O)N2CCN(C(=O)c3cn4nc(-c5ccc(C)c(F)c5)cc(C(C)(C)C)c4n3)C(C)(C)C2)n[nH]1 [Compound I-416]	PAR2 (HT-29 cells, trypsin activation) (Homo sapiens)	IC50	0.6 nM
Cc1nc(C(=O)N2CCN(C(=O)c3cn4nc(-c5ccc(C(F)(F)F)cc5)cc(C(C)C)c4n3)C(C)(C)C2)c[nH]1 [Compound I-372]	PAR2 (HT-29 cells, trypsin activation) (Homo sapiens)	IC50	5.6 nM

Attention now turns to another entry.
Record request: IC50 value, item CC(C)c1cc(-c2ccc(Cl)cc2)nn2cc(C(=O)N3CCN(C(=O)[C@H]4C[C@@H](C(=O)O)C4)CC3(C)C)nc12 [Compound I-553]
49.5 nM
